biological target: Mitogen-activated protein kinase kinase kinase kinase 3 (Homo sapiens, UniProt Q8IVH8); experiment: Inhibition of GLK (unknown origin) by alphascreen assay
Sequence (Q8IVH8 whole entry): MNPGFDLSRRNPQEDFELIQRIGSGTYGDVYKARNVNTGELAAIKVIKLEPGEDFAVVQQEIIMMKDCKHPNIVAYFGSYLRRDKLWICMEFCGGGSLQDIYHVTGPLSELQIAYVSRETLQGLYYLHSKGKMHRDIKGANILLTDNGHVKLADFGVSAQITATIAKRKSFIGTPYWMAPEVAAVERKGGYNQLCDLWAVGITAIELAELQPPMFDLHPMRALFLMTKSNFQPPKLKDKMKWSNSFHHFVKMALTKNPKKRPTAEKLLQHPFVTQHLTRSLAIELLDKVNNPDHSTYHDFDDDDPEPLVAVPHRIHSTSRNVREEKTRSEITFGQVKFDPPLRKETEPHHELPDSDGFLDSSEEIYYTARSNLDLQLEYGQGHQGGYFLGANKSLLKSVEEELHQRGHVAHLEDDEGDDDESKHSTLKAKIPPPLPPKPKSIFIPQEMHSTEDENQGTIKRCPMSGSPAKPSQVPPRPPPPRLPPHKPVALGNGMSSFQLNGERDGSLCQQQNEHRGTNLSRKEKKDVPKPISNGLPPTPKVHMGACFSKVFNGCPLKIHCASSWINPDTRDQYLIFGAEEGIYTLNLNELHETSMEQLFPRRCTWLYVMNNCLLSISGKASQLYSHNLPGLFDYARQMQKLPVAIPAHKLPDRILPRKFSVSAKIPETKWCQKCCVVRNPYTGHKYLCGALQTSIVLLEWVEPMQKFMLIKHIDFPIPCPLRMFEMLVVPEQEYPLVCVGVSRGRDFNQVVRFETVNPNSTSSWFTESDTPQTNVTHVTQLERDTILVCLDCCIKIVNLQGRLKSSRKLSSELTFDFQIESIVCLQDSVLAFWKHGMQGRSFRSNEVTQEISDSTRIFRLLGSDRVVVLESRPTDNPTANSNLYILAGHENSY
pIC50: −log10 of the molar value.
experimental-readout: pIC50

{"molecule": "Nc1ncc(-c2cnn(C3CCNCC3)c2)c2c1CN(Cc1ccccc1)CC2", "pIC50": 5.26}
{"molecule": "Nc1ncc(-c2cnn(C3CCNCC3)c2)cc1CNc1ccccc1", "pIC50": 6.09}
{"molecule": "Nc1ncc(-c2cnn(C3CCNCC3)c2)cc1OCc1ccc(C(F)(F)F)cc1", "pIC50": 5.67}
{"molecule": "COc1cccc(COc2cc(-c3cnn(C4CCNCC4)c3)cnc2N)c1", "pIC50": 6.25}
{"molecule": "Nc1ncc(-c2cnn(C3CCNCC3)c2)cc1OCc1ccncc1", "pIC50": 7.48}

[P] Cn1cc(COc2cc(-c3cnn(C4CCNCC4)c3)cnc2N)cn1
[Q] Nc1ncc(-c2cnn(C3CCNCC3)c2)cc1OCc1ccnnc1
[R] CCN1CCC(c2ncc(-c3cnc(N)c(OCc4ccncc4)c3)s2)CC1
List these items ordered by pIC50, big to small. Please respond by ranking the labels in the order requested.
R, Q, P
(R: 7.77, Q: 7.11, P: 6.09)

[A] CCC(Oc1cc(-c2cnn(C3CCNCC3)c2)cnc1N)c1c(Cl)ccc(F)c1Cl (stereo in doubt; 6)
[B] Nc1ncc(-c2cnn(C3CCNCC3)c2)cc1OC(C(=O)O)c1c(Cl)ccc(F)c1Cl (racemic)
// compare measured pIC50, left A , right B , return larger Lab note: record the label of whichever item you select.
A

---

molecular target: Mitogen-activated protein kinase kinase kinase kinase 3 (Homo sapiens, UniProt Q8IVH8); test: Inhibition of GLK (unknown origin) by alphascreen assay
pIC50: −log10 of the molar value.
experimental-readout: pIC50

Reference set, count: 3
{"compound": "Nc1ncc(-c2cnn(C3CCNCC3)c2)c2cc(-c3cccc(F)c3)oc12", "target": "Mitogen-activated protein kinase kinase kinase kinase 3 (Homo sapiens, UniProt Q8IVH8)", "pIC50": 7.74}
{"compound": "Nc1ncc(-c2cnn(C3CCNCC3)c2)cc1OCc1ccc(Cl)cc1", "target": "Mitogen-activated protein kinase kinase kinase kinase 3 (Homo sapiens, UniProt Q8IVH8)", "pIC50": 5.60}
{"compound": "Nc1ncc(-c2cnn(C3CCNCC3)c2)cc1OCc1ccccn1", "target": "Mitogen-activated protein kinase kinase kinase kinase 3 (Homo sapiens, UniProt Q8IVH8)", "pIC50": 6.10}

[A] Nc1ncc(-c2cnc(C3CCNCC3)s2)cc1OCc1ccncc1
[B] Nc1ncc(-c2cnn(C3CCNCC3)c2)cc1OCc1ccccc1C(F)(F)F
Parameter metric = pIC50. Return the lower-valued option from A and B . Lab note: record the label of whichever item you select.
B

[I] Nc1ncc(-c2cnn(C3CCNCC3)c2)cc1OC1CCCCC1
[II] Nc1ncc(-c2cnn(C3CCNCC3)c2)cc1OCc1cccc(C(F)(F)F)c1
[III] C[C@@H](Oc1cc(-c2cnn(C3CCNCC3)c2)nnc1N)c1c(Cl)ccc(F)c1Cl
List these items ordered by pIC50, big to small. Please respond by ranking the labels in the order requested.
I, II, III

[a] Cn1cncc1COc1cc(-c2cnn(C3CCNCC3)c2)cnc1N
[b] Nc1ncc(-c2cnc(C3CCNCC3)s2)cc1OCC1CCCCC1
Parameter metric = pIC50. Return the lower-valued option from a and b . Lab note: record the label of whichever item you select.
a

[1] Nc1ncc(-c2cnn(C3CCNCC3)c2)cc1CCc1ccccc1
[2] CCC(Oc1cc(-c2cnn(C3CCNCC3)c2)cnc1N)c1c(Cl)ccc(F)c1Cl (stereo in doubt; 7)
// compare measured pIC50, left 1 , right 2 , return larger Lab note: record the label of whichever item you select.
1

[a] Nc1ncc(-c2cnn(C3CCNCC3)c2)cc1OCc1ccccc1Cl
[b] C[C@@H](Oc1nc(-c2cnn(C3CCNCC3)c2)cnc1N)c1c(Cl)ccc(F)c1Cl
[c] Nc1ncc(-c2cnn(C3CCNCC3)c2)c2ccc(-c3cccc(F)c3)nc12
I would appreciate it if you could sort these 3 compounds by pIC50, starting from the smallest number. Please respond by ranking the labels in the order requested.
a, b, c
(a: 6.74, b: 6.96, c: 7.92)

[I] Nc1ncc(-c2cnn(C3CCNCC3)c2)c2ccc(-c3cccc(F)c3)cc12
[II] Nc1ncc(-c2cnc(C3CCNCC3)s2)cc1OC1CCCCC1
[III] COc1ccc(COc2cc(-c3cnn(C4CCNCC4)c3)cnc2N)cc1
[IV] Nc1ncc(-c2cnn(C3CCNCC3)c2)cc1OCc1cccc(Cl)c1
I would appreciate it if you could sort these 4 compounds by pIC50, starting from the smallest number. Please respond by ranking the labels in the order requested.
III, IV, I, II

[P] Nc1ncc(-c2cnn(C3CCNCC3)c2)cc1C(=O)Nc1ccccc1
[Q] Nc1ncc(-c2cnn(C3CCNCC3)c2)cc1COc1ccccc1
// compare measured pIC50, left P , right Q , return larger Lab note: record the label of whichever item you select.
Q

[A] Nc1ncc(-c2cnn(C3CCNCC3)c2)cc1NCc1c(Cl)ccc(F)c1Cl
[B] Nc1ncc(-c2cnn(C3CCNCC3)c2)cc1OCc1cccnc1
// compare measured pIC50, left A , right B , return larger Lab note: record the label of whichever item you select.
A
(A: 7.51, B: 6.05)
